Cited source: the Human Domainome abundance scans (Beltran et al. 2025)

B1: Transcriptional repressor p66-beta, residues 415 to 455; numbered along this chain, Q8WXI9 (parent)
chain: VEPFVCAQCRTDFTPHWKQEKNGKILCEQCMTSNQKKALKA

# Variants of: B1
# METHOD NOTES: abundance fitness (aPCA) (normalised: wild type 0, dead -1); higher = more abundant; growth selection in yeast, the domain comes from the species named
# CONDITION PARAMETERS: Homo sapiens
For each record, write down the corresponding abundance fitness.
In your answer, state the number alone without any accompanying words.

### Prompt Query abundance fitness for "K37Y"
### Response -0.116

### Prompt Give the measured abundance fitness for "K37A"
### Response 0.018

### Prompt Give the reported value of abundance fitness for this record: "F4P"
### Response -0.208

### Prompt For the variant "K37D" , report abundance fitness.
### Response -0.191

### Prompt Tell me its abundance fitness given "R10L" as the entry.
### Response 0.585

### Prompt Name the recorded abundance fitness of the item "G23R" in your answer.
### Response 0.003

### Prompt Supply recorded abundance fitness for "H16W" here.
### Response 0.017

### Prompt Retrieve abundance fitness measured for "V1E" and print it.
### Response 0.067

### Prompt Tell me measured abundance fitness for "H16T" please.
### Response 0.09

### Prompt Return value of abundance fitness for input "H16M" , no commentary.
### Response -0.1

### Prompt In one line, give reported abundance fitness of the entry "A7M" .
### Response -0.165

### Prompt Please give measured abundance fitness of the following entry: "F4D"
### Response 0.282

### Prompt Output abundance fitness of "P3W"
### Response -0.243

### Prompt In one line, give reported abundance fitness of the entry "C27E" .
### Response -0.319

### Prompt Give reported abundance fitness value for "D12L"
### Response -0.198

### Prompt Please give the documented abundance fitness of "N22W"
### Response 0.137

### Prompt Tell us which abundance fitness value is on record for "T14I"
### Response -0.298

### Prompt Determine from records and report abundance fitness for "A38P"
### Response -0.509

### Prompt Annotate the variant "P15E" with its measured abundance fitness.
### Response -0.102

### Prompt Could you please provide reported abundance fitness for "T14S" ? Thanks!
### Response -0.042

### Prompt Report abundance fitness for "L39E"
### Response -0.108

### Prompt Look up abundance fitness of "C9N" and report it.
### Response -0.717

### Prompt Output abundance fitness of "K40N"
### Response 0.079

### Prompt Please supply the value of reported abundance fitness for the item "K36F"
### Response -0.324

### Prompt State its abundance fitness for this variant: "N34K"
### Response -0.254

### Prompt Tell me its abundance fitness given "S33L" as the entry.
### Response -0.176

### Prompt Give the measured abundance fitness for "Q35M"
### Response -0.157

### Prompt Identify the reported abundance fitness for the following entry. "A41K"
### Response -0.091

### Prompt Quickly give me recorded abundance fitness for "R10K"
### Response 0.409

### Prompt Kindly indicate its recorded abundance fitness. Item: "L26M"
### Response 0.358

### Prompt Could you please provide reported abundance fitness for "N34C" ? Thanks!
### Response -0.197

### Prompt Determine from records and report abundance fitness for "A41W"
### Response 0.002

### Prompt Output measured abundance fitness for this item: "K18Q"
### Response -0.105

### Prompt Please list abundance fitness recorded for the variant "T14H"
### Response -0.039

### Prompt // fetch abundance fitness given entry "E2W"
### Response -0.651

### Prompt State, in one line, measured abundance fitness of "D12T"
### Response -0.016

### Prompt Look up and report measured abundance fitness for this entry: "E2Y"
### Response -0.114

### Prompt Return abundance fitness for the following variant: "A7S"
### Response 0.523
